tested on: panel of breast cancer cell lines; experiment: Compound A with targeted agents and chemotherapies, 72-hour in vitro proliferation assays; assay type: cell-based; conditions: HCC1143 cell line; compound A × partner; 72-hour proliferation
Respond with satisfied for Bliss Volume values of 10 and above, not satisfied for values below.

Before answering, review these 6 worked examples.
compound: Cn1ncnc1[C@H]1c2n[nH]c(=O)c3cc(F)cc(c23)N[C@@H]1c1ccc(F)cc1
system: panel of breast cancer cell lines
classLabel: not satisfied
//
compound: Cc1c(-c2ccc(N3CCc4cccc(C(=O)Nc5nc6ccccc6s5)c4C3)nc2C(=O)O)cnn1CC12CC3CC(CC(C3)C1)C2
system: panel of breast cancer cell lines
classLabel: satisfied
//
compound: N.N.O=C([O-])C1(C(=O)[O-])CCC1.[Pt+2]
system: panel of breast cancer cell lines
classLabel: not satisfied
//
compound: CC1(C)CCC(c2ccc(Cl)cc2)=C(CN2CCN(c3ccc(C(=O)NS(=O)(=O)c4ccc(N[C@H](CCN5CCOCC5)CSc5ccccc5)c(S(=O)(=O)C(F)(F)F)c4)cc3)CC2)C1
system: panel of breast cancer cell lines
classLabel: satisfied
//
compound: N.N.[Cl][Pt][Cl] [Cisplatin]
system: panel of breast cancer cell lines
classLabel: not satisfied
//
compound: CCN1CCN(Cc2ccc(Nc3ncc(F)c(-c4cc(F)c5nc(C)n(C(C)C)c5c4)n3)nc2)CC1
system: panel of breast cancer cell lines
classLabel: satisfied

Confirm if Bliss Volume reported for the compound CC1(C)CCC(CN2CCN(c3ccc(C(=O)NS(=O)(=O)c4ccc(NCC5CCOCC5)c([N+](=O)[O-])c4)c(Oc4cnc5[nH]ccc5c4)c3)CC2)=C(c2ccc(Cl)cc2)C1 is 10 or above. not satisfied

Further, for CC(=O)O[C@@]12CO[C@@H]1C[C@H](O)[C@@]1(C)C(=O)[C@H](O)C3=C(C)[C@@H](OC(=O)[C@H](O)[C@@H](NC(=O)OC(C)(C)C)c4ccccc4)C[C@@](O)([C@@H](OC(=O)c4ccccc4)[C@H]21)C3(C)C ? satisfied

----------
system: panel of breast cancer cell lines; test: Compound A with targeted agents and chemotherapies, 72-hour in vitro proliferation assays; format: cell-based; settings: CAL-85-1 cell line; compound A × partner; 72-hour proliferation
Structures can show the parent of a compound that is named as a salt.
resultType: HSA volume
Please give only the number in your answer, with no unit.

compound: CO[C@H]1C[C@@H]2CC[C@@H](C)[C@@](O)(O2)C(=O)C(=O)N2CCCC[C@H]2C(=O)O[C@H]([C@H](C)C[C@@H]2CC[C@@H](OCCO)[C@H](OC)C2)CC(=O)[C@H](C)/C=C(\C)[C@@H](O)[C@@H](OC)C(=O)[C@H](C)C[C@H](C)/C=C/C=C/C=C/1C [Everolimus]
HSA volume: 14.41
//
compound: CC(C)NC[C@@H](C(=O)N1CCN(c2ncnc3c2[C@H](C)C[C@H]3O)CC1)c1ccc(Cl)cc1 [GDC-0068]
HSA volume: 2.26
//
compound: CC1(C)CCC(CN2CCN(c3ccc(C(=O)NS(=O)(=O)c4ccc(NCC5CCOCC5)c([N+](=O)[O-])c4)c(Oc4cnc5[nH]ccc5c4)c3)CC2)=C(c2ccc(Cl)cc2)C1 [ABT-199]
HSA volume: −2.11
//
compound: N.N.[Cl][Pt][Cl] [Cisplatin]
HSA volume: 4.63
//
compound: O=C(c1cc(Cc2n[nH]c(=O)c3ccccc23)ccc1F)N1CCN(C(=O)C2CC2)CC1 [Olaparib]
HSA volume: 5.66

So what does the record say about HSA volume for CCN1CCN(Cc2ccc(Nc3ncc(F)c(-c4cc(F)c5nc(C)n(C(C)C)c5c4)n3)nc2)CC1 [Abemaciclib] ? 3.28

Further, for CC1(C)CCC(c2ccc(Cl)cc2)=C(CN2CCN(c3ccc(C(=O)NS(=O)(=O)c4ccc(N[C@H](CCN5CCOCC5)CSc5ccccc5)c(S(=O)(=O)C(F)(F)F)c4)cc3)CC2)C1 [ABT-263] ? 16.06

Further, for C[C@]12CC[C@@H]3c4ccc(O)cc4C[C@@H](CCCCCCCCC[S+]([O-])CCCC(F)(F)C(F)(F)F)[C@H]3[C@@H]1CC[C@@H]2O (stereo partly shown) [Fulvestrant] ? −0.20

Further, for CCOc1cc2ncc(C#N)c(Nc3ccc(OCc4ccccn4)c(Cl)c3)c2cc1NC(=O)/C=C/CN(C)C [Neratinib] ? 18.05

Further, for CN(C)C(=O)c1cc2cnc(Nc3ccc(N4CCNCC4)cn3)nc2n1C1CCCC1 [LEE011] ? −9.15

Further, for Nc1ccn([C@@H]2O[C@H](CO)[C@@H](O)C2(F)F)c(=O)n1 [Gemcitabine Hydrochloride] ? 8.91

Further, for CC(=O)O[C@@]12CO[C@@H]1C[C@H](O)[C@@]1(C)C(=O)[C@H](O)C3=C(C)[C@@H](OC(=O)[C@H](O)[C@@H](NC(=O)OC(C)(C)C)c4ccccc4)C[C@@](O)([C@@H](OC(=O)c4ccccc4)[C@H]21)C3(C)C [Docetaxel] ? 11.86

Further, for Cn1ncnc1[C@H]1c2n[nH]c(=O)c3cc(F)cc(c23)N[C@@H]1c1ccc(F)cc1 [BMN 673] ? 13.84

Further, for Cc1c(-c2ccc(N3CCc4cccc(C(=O)Nc5nc6ccccc6s5)c4C3)nc2C(=O)O)cnn1CC12CC3CC(CC(C3)C1)C2 [Compound A-1331852] ? 54.69

Further, for CC(=O)c1c(C)c2cnc(Nc3ccc(N4CCNCC4)cn3)nc2n(C2CCCC2)c1=O [PD-0332991] ? −8.20

Further, for N.N.O=C([O-])C1(C(=O)[O-])CCC1.[Pt+2] [Carboplatin] ? 3.68

----------
tested on: panel of breast cancer cell lines; test: Compound A with targeted agents and chemotherapies, 72-hour in vitro proliferation assays; format: cell-based; settings: ZR-75-30 cells; combination of compound A with the named agent; 72-hour proliferation
Respond with Met for Bliss Volume values of 6 and above, Not met for values below.

compound: C[C@]12CC[C@@H]3c4ccc(O)cc4C[C@@H](CCCCCCCCC[S+]([O-])CCCC(F)(F)C(F)(F)F)[C@H]3[C@@H]1CC[C@@H]2O (some centres unmarked) [Fulvestrant]
classLabel: Not met

compound: CO[C@H]1C[C@@H]2CC[C@@H](C)[C@@](O)(O2)C(=O)C(=O)N2CCCC[C@H]2C(=O)O[C@H]([C@H](C)C[C@@H]2CC[C@@H](OCCO)[C@H](OC)C2)CC(=O)[C@H](C)/C=C(\C)[C@@H](O)[C@@H](OC)C(=O)[C@H](C)C[C@H](C)/C=C/C=C/C=C/1C [Everolimus]
classLabel: Not met

compound: N.N.O=C([O-])C1(C(=O)[O-])CCC1.[Pt+2] [Carboplatin]
classLabel: Met

compound: CC(=O)O[C@@]12CO[C@@H]1C[C@H](O)[C@@]1(C)C(=O)[C@H](O)C3=C(C)[C@@H](OC(=O)[C@H](O)[C@@H](NC(=O)OC(C)(C)C)c4ccccc4)C[C@@](O)([C@@H](OC(=O)c4ccccc4)[C@H]21)C3(C)C [Docetaxel]
classLabel: Met

Confirm if Bliss Volume reported for the compound N.N.[Cl][Pt][Cl] [Cisplatin] is 6 or above. Met

----------
Reported Best CI is given for each of the following compounds.
system: panel of breast cancer cell lines; assay: Compound A with targeted agents and chemotherapies, 72-hour in vitro proliferation assays; type: cell-based; conditions: HCC1806; compound A × partner, 72-hour proliferation
Please give only the number in your answer, with no unit.

compound: CN(C)C(=O)c1cc2cnc(Nc3ccc(N4CCNCC4)cn3)nc2n1C1CCCC1
readoutNumber: 0.56

So what does the record say about Best CI for CC(=O)c1c(C)c2cnc(Nc3ccc(N4CCNCC4)cn3)nc2n(C2CCCC2)c1=O ? 0.02

Further, for CCOc1cc2ncc(C#N)c(Nc3ccc(OCc4ccccn4)c(Cl)c3)c2cc1NC(=O)/C=C/CN(C)C ? 0.15

Further, for N.N.[Cl][Pt][Cl] [Cisplatin] ? 0.22

Further, for O=C(c1cc(Cc2n[nH]c(=O)c3ccccc23)ccc1F)N1CCN(C(=O)C2CC2)CC1 ? 0.21

Further, for Cc1c(-c2ccc(N3CCc4cccc(C(=O)Nc5nc6ccccc6s5)c4C3)nc2C(=O)O)cnn1CC12CC3CC(CC(C3)C1)C2 ? 0.00

Further, for CC1(C)CCC(CN2CCN(c3ccc(C(=O)NS(=O)(=O)c4ccc(NCC5CCOCC5)c([N+](=O)[O-])c4)c(Oc4cnc5[nH]ccc5c4)c3)CC2)=C(c2ccc(Cl)cc2)C1 ? 0.83

----------
Reported Bliss Volume is given for each of the following compounds.
test system: panel of breast cancer cell lines; assay: Compound A with targeted agents and chemotherapies, 72-hour in vitro proliferation assays; type: cell-based; details: HDQ-P1; compound A × partner, 72-hour proliferation

Some compounds with recorded Bliss Volume:
compound: CC(=O)c1c(C)c2cnc(Nc3ccc(N4CCNCC4)cn3)nc2n(C2CCCC2)c1=O [PD-0332991]
Bliss Volume: 0.47
--
compound: N.N.O=C([O-])C1(C(=O)[O-])CCC1.[Pt+2] [Carboplatin]
Bliss Volume: −3.17
--
compound: C[C@]12CC[C@@H]3c4ccc(O)cc4C[C@@H](CCCCCCCCC[S+]([O-])CCCC(F)(F)C(F)(F)F)[C@H]3[C@@H]1CC[C@@H]2O (stereo partly drawn) [Fulvestrant]
Bliss Volume: −5.92

Hello, I am looking for reported Bliss Volume with panel of breast cancer cell lines for CC(=O)O[C@@]12CO[C@@H]1C[C@H](O)[C@@]1(C)C(=O)[C@H](O)C3=C(C)[C@@H](OC(=O)[C@H](O)[C@@H](NC(=O)OC(C)(C)C)c4ccccc4)C[C@@](O)([C@@H](OC(=O)c4ccccc4)[C@H]21)C3(C)C [Docetaxel] . Could you help? 7.85

Further, for CC1(C)CCC(c2ccc(Cl)cc2)=C(CN2CCN(c3ccc(C(=O)NS(=O)(=O)c4ccc(N[C@H](CCN5CCOCC5)CSc5ccccc5)c(S(=O)(=O)C(F)(F)F)c4)cc3)CC2)C1 [ABT-263] ? 27.19

Further, for CN(C)C(=O)c1cc2cnc(Nc3ccc(N4CCNCC4)cn3)nc2n1C1CCCC1 [LEE011] ? −2.80
